- tested_on: UniProt:P48736
- Sequence (P48736 whole entry): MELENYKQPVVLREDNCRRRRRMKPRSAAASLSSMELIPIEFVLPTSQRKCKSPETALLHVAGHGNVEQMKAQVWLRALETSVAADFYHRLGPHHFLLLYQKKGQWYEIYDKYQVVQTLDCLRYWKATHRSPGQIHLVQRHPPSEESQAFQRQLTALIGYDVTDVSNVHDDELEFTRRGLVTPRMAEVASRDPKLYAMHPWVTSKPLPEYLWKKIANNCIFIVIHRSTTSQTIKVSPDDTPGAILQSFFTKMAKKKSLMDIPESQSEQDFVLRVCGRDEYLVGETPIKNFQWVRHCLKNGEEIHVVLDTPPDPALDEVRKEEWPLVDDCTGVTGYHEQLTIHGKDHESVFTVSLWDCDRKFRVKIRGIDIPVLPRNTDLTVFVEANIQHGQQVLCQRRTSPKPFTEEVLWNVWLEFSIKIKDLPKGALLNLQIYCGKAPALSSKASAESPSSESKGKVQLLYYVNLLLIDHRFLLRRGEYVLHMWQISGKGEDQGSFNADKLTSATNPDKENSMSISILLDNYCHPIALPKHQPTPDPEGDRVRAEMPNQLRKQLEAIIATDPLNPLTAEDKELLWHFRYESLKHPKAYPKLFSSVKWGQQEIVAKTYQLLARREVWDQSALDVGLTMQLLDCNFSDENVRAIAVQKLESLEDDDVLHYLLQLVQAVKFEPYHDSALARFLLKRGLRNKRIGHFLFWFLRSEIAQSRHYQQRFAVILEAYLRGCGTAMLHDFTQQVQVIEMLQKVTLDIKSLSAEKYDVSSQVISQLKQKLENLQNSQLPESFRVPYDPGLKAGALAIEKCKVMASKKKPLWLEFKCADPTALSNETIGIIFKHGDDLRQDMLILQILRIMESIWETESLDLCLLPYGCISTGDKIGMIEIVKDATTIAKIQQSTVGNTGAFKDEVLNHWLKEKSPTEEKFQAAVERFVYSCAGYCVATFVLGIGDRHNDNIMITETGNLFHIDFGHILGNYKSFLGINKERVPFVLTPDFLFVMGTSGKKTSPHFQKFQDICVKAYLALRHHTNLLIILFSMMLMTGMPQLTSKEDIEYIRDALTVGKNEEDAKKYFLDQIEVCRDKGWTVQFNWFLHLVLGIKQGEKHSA
- assay_info: PI3Kγ inhibitory activity, PI3-kinase HTRF assay (inhibition ratio)
- Type: biochemical
- condition: 0.5 h, compound at 50 μmol/L
assay_metric: inhibition at 50 µM (%)

{"columns": ["compound", "assay_metric", "value_modifier", "reported_result"],
 "data": [
  ["CC1(C/C=C/c2ccccc2)SC(N2CCOc3cccnc32)=NC1=O (stereo not drawn)", "inhibition at 50 µM", "=", 81],
  ["O=C(O)CNC(=O)c1cccc(Nc2ccc3c(n2)N(C(=O)Nc2ccccc2)CCO3)c1", "inhibition at 50 µM", "≥", 95],
  ["O=C(Nc1ccccc1)N1CCOc2cc(N3CCNCC3)cnc21", "inhibition at 50 µM", "≥", 95],
  ["O=C(O)COc1ccccc1Nc1ccc2c(n1)N(C(=O)Nc1ccccc1)CCO2", "inhibition at 50 µM", "≥", 95],
  ["O=C(Nc1ccccc1)N1CCOc2ccc(Nc3ccccn3)nc21", "inhibition at 50 µM", "≥", 95],
  ["NCCOc1ccccc1NC(=O)c1ccc2c(n1)N(C(=O)Nc1ccccc1)CCO2", "inhibition at 50 µM", "≥", 95],
  ["NCCOc1ccc(Nc2ccc3c(n2)N(C(=O)Nc2ccccc2)CCO3)cc1", "inhibition at 50 µM", "≥", 95],
  ["O=C(Nc1ccccc1)N1CCOc2ccc(-c3ncco3)nc21", "inhibition at 50 µM", "=", 72],
  ["O=C(Nc1ccccc1)N1CCOc2ccc(C3CCCCC3)nc21", "inhibition at 50 µM", "=", 82],
  ["O=C(Nc1ccccc1)N1CCOc2ccc(N3CCOCC3)nc21", "inhibition at 50 µM", "=", 81],
  ["COc1ccc(-c2ccc3c(n2)N(C(=O)Nc2ccccc2)CCO3)cc1OC", "inhibition at 50 µM", "≥", 95],
  ["CCN(CC)c1cc(F)cc(Nc2cnc3c(c2)OCCN3C(=O)Nc2ccccc2)c1", "inhibition at 50 µM", "=", 91],
  ["CC(C)(C)OC(=O)N1CCN(c2cnc3c(c2)OCCN3C(=O)Nc2ccccc2)CC1", "inhibition at 50 µM", "=", 80],
  ["O=C(Nc1ccccc1)N1CCOc2cc(Nc3ccc4ncccc4c3)cnc21", "inhibition at 50 µM", "=", 87],
  ["O=C(O)CC(=O)Nc1cnc2c(c1)OCCN2C(=O)Nc1ccccc1", "inhibition at 50 µM", "=", 88],
  ["O=C(Nc1ccccc1)N1CCOc2cccnc21", "inhibition at 50 µM", "=", 89],
  ["O=C(O)c1cccc(C(=O)Nc2ccc3c(n2)N(C(=O)Nc2ccccc2)CCO3)c1", "inhibition at 50 µM", "=", 76],
  ["O=C(Nc1ccccc1)N1CCOc2ccc(-c3ccn[nH]3)nc21", "inhibition at 50 µM", "≥", 95]
]}
